Where these numbers come from: paper PMC9988221

target: CYP2B6 (Homo sapiens)
Sequence (P20813 whole entry): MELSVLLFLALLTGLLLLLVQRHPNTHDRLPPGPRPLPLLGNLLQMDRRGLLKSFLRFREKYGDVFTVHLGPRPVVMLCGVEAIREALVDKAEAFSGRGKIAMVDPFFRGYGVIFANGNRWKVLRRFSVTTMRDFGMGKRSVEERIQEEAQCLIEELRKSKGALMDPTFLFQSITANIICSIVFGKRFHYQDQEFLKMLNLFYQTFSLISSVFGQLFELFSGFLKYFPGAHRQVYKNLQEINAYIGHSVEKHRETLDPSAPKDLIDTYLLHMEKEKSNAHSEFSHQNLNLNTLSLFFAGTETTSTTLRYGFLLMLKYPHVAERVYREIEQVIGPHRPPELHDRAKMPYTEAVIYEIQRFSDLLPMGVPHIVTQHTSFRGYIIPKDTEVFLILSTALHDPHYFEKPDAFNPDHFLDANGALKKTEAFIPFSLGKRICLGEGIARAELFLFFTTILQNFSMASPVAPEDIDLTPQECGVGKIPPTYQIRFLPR
endpoint: IC50

Q) Lab note: need IC50 with CYP2B6 (Homo sapiens) for entry `C[C@@H](Oc1ccc(S(C)(=O)=O)cc1C(=O)N1C[C@@H]2C[C@]2(c2cc(C(F)(F)F)on2)C1)C(F)(F)F` , please look it up.
A) > 100 µM

---

format: in vivo, human; settings: male, human, plasma, Cmax, gMean, Probe Drug Only; healthy males
Collected Cmax values appear next to each entry.

Q) # get_value(readout='Cmax', item= COc1ccc2[nH]c([S+]([O-])Cc3ncc(C)c(OC)c3C)nc2c1 (centres unmarked) )
A) 220 ng/mL

Alright, here's another compound for you.
Q) # get_value(readout='Cmax', item= `Cc1ncc2n1-c1ccc(Cl)cc1C(c1ccccc1F)=NC2` )
A) 8.5 ng/mL

---

biological target: CYP2C8 (Homo sapiens, UniProt P10632)
Sequence (P10632 whole entry): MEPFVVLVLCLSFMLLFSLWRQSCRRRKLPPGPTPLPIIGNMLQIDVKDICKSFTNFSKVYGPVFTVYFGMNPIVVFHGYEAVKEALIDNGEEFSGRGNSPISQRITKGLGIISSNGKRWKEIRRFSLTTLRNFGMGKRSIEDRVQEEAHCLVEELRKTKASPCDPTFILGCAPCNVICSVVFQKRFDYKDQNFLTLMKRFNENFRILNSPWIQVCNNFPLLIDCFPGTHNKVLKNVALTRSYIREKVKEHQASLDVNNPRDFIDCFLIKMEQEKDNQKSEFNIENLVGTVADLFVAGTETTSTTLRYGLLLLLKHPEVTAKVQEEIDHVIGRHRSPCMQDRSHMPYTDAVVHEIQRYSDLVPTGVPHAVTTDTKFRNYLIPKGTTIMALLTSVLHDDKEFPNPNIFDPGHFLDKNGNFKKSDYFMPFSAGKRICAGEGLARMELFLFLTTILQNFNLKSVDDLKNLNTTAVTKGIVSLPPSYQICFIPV
pIC50: −log10 of the molar value.
endpoint: pIC50

Q) # get_value(readout='pIC50', item= `C[C@@H](Oc1ccc(S(C)(=O)=O)cc1C(=O)N1C[C@@H]2C[C@]2(c2cc(C(F)(F)F)on2)C1)C(F)(F)F` )
A) < 4.00

---

Collected Cmax values appear next to each entry.
assay type: in vivo, human; conditions: male, human, plasma, Cmax, gMean, Probe Drug + BI 425809 25 mg once daily at steady state; healthy males, plasma
Give the number; ng/mL is assumed, so skip it.

Q) # get_value(readout='Cmax', item= COc1ccc2[nH]c([S+]([O-])Cc3ncc(C)c(OC)c3C)nc2c1 (centres unmarked) )
A) 225

Q) # get_value(readout='Cmax', item= `Cc1ncc2n1-c1ccc(Cl)cc1C(c1ccccc1F)=NC2` )
A) 6.6
